Reported selectivity ratio values for a set of compounds
# protocol.details: Selectivity index, ratio of CC50 for cytotoxicity against African green monkey Vero cells to MIC for antimycobacterial activity against multidrug resistant Mycobacterium tuberculosis 16833
# Assay type: toxicity, cell-based
# condition: read-out: Selectivity Index

Example entries begin here.
INSERT INTO measurements (compound, recorded_measurement) VALUES
  ('CC(C)(C)OC(=O)CNC(=O)CON=C1CCC(CN2CCN(c3nc(=O)c4cc(C(F)(F)F)cc([N+](=O)[O-])c4s3)CC2)CC1 (centres undefined)', '> 408'),
  ('O=C(O)CNC1CCC(CN2CCN(c3nc(=O)c4cc(C(F)(F)F)cc([N+](=O)[O-])c4s3)CC2)CC1 (centres undefined)', '> 1390'),
  ('CC(C)(C)OC(=O)CCON=C1CCC(CN2CCN(c3nc(=O)c4cc(C(F)(F)F)cc([N+](=O)[O-])c4s3)CC2)CC1 (centres undefined)', '> 3370');

Below: the item to evaluate.
GET /value?item= C[C@H](NC(=O)C(C)(C)ON=C1CCC(CN2CCN(c3nc(=O)c4cc(C(F)(F)F)cc([N+](=O)[O-])c4s3)CC2)CC1)C(=O)OC(C)(C)C (some centres undefined) &field=selectivity ratio returns > 3980
